conditions: in water, 347.35 K
TEST READOUT: solubility (mole fraction)

> print(dat)
   smiles.repr                test.readout  endpoint.value
1      NC(N)=S  solubility (mole fraction)           0.218

----------
conditions: in water, 307.1 K
TEST READOUT: solubility (mole fraction)

> print(dat)
   smiles.repr  endpoint.value
1      NC(N)=S          0.0583

----------
conditions: in water, 310.35 K
TEST READOUT: solubility (mole fraction)

> print(dat)
   smiles.repr                test.readout  endpoint.value
1      CC(C)Br  solubility (mole fraction)         0.00157

----------
conditions: in water, 326.05 K
TEST READOUT: solubility (mole fraction)

> print(dat)
   smiles.repr  endpoint.value
1      NC(N)=S           0.116

----------
details: in water, 303.55 K
TEST READOUT: solubility (mole fraction)

> print(dat)
   smiles.repr  endpoint.value
1      CC(C)Br         0.00104

----------
details: in water, 306.25 K
TEST READOUT: solubility (mole fraction)

> print(dat)
   smiles.repr  endpoint.value
1      CC(C)Br         0.00121

----------
details: in water, 333.25 K
TEST READOUT: solubility (mole fraction)

> print(dat)
   smiles.repr                test.readout  endpoint.value
1      NC(N)=S  solubility (mole fraction)            0.15

----------
details: in water, 290.75 K
TEST READOUT: solubility (mole fraction)

> print(dat)
   smiles.repr                test.readout  endpoint.value
1      NC(N)=S  solubility (mole fraction)          0.0256

Cited source for all entries: BigSolDB 2.1
